As shown below, each of these sequences has a reported apparent KD of MS2 coat protein value.
- Test system: MS2 coat protein
- MEASUREMENT NOTES: apparent KD of MS2 coat protein; designed switch direction (-1 OFF switch, 1 ON switch): -1; higher = weaker reporter binding
- PROTOCOL CONDITIONS: input ligand: FMN 200 uM
Please append the unit to your numeric answer.

# count of solved cases: 3
RESIDUE STRING: UUGAUUCAUUCCUCUAUAAACAUGAGGAUCACCCAUGUAAGUGAGGAUAUAGUUGGAGUUGUAUACUAGAAGGCACUUAGUUUU [JR_ExcNG3_Sub048] (Eterna round: R96, puzzle: Exclusion NG 3)
VAL: 26 nM

RESIDUE STRING: GUGGUACAUGAGGAUCACCCAUGUAAGGAUAUAGUCGUCUGGUGGUCGCGGGUGGUGGCUAGAAGGUGCGUGCG [-19.6, -16.8 kcal, A 19%] (Eterna round: R97, puzzle: Exclusion 1)
VAL: 93.9 nM

RESIDUE STRING: UUGCCACAUGAGGAUCACCCAUGUGAGGAUAUGGCCCGCCCGGCGUGUGCUGGUUCUGUCAGAAGGCGCGUGGG [salish99_ex1_r4_030] (Eterna round: R97, puzzle: Exclusion 1)
VAL: 73 nM

# return apparent KD of MS2 coat protein for GGCAGACAUGAGGAUCACCCAUGUCAGGAUAUGGUGCGAUCGUCGAUAGACGAUAGCACCAGAAGGGACAUGCC [Mat - Exclusion 1 - Eli Mod - D3] (Eterna round: R97, puzzle: Exclusion 1) , test system: MS2 coat protein
39.7 nM

# return apparent KD of MS2 coat protein for AAUAACAAGCUGAUCCUAAACAUGAGGAUCACCCAUGUGUUCGUCUUGUAAAGUACUAUCACGAAAGUGAUAGUACA (Eterna round: R97, puzzle: Sensor, turn-off variant 1) , test system: MS2 coat protein
75.2 nM
